assay details: PK in fasted male Sprague Dawley rats, PO administration of prodrug
Format: in vivo
condition parameters: rat; fasted male Sprague Dawley rats; PO 14 mg/kg; prodrug in plasma; read-out: Example 125 t1/2, Mean (converted)
readout name: half-life (h)
Express the result in h but write the number alone.

Prompt: # return recorded half-life for input `CN(CC(=O)Nc1nc2ccc(OC(F)(F)F)cc2s1)C(=O)CNC(C)(C)C`
Completion: 3.8
